target_or_test_system: BaF3 TELJAK3 cells (Homo sapiens)
Construct: fused on or other part: TEL (ETV6) N-terminal part, coding nucleotides 1-487, serves as the oligomerising partner; It is fused through a Sal I site to the JAK3 kinase domain and expressed from pTRE2 in BaF3 cells bearing pTET-off; P41212 (Transcription factor ETV6)
Sequence (P52333 whole entry, change not shown, the tested form may be a part): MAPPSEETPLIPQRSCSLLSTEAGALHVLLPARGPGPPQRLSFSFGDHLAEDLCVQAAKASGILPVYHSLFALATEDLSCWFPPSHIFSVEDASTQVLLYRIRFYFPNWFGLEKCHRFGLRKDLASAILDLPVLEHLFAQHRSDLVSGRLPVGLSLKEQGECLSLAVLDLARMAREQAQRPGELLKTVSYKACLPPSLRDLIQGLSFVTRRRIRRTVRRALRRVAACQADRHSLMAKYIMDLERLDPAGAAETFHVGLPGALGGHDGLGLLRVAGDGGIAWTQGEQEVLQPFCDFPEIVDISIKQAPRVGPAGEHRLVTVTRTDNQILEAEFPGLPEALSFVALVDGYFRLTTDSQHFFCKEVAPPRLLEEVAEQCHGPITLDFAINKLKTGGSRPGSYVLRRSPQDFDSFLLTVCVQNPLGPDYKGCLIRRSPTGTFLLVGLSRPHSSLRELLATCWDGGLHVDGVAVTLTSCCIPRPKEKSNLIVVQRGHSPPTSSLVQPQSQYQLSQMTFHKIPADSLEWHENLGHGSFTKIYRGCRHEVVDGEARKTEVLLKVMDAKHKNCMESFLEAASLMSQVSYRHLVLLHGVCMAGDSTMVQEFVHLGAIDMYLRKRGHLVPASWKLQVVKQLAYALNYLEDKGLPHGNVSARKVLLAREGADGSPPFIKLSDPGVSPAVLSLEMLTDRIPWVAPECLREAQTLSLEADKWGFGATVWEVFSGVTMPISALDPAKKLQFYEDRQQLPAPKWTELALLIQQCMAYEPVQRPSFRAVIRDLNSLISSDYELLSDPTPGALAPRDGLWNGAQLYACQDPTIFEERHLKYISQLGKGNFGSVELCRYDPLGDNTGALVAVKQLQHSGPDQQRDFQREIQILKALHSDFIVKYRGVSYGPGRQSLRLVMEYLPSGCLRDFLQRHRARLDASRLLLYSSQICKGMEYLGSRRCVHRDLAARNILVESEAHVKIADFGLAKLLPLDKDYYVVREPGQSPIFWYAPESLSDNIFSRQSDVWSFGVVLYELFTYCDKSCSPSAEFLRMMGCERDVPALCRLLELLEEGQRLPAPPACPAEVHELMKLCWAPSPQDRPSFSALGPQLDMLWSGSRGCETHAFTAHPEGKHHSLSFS
assay_remarks: Cellular screening, BaF3 TEL:JAK3 cells, Alamar Blue
Format: cell-based
measurement_context: 40 hr, read-out: BafT_J3 IC50_nM
recorded_metric: GI50

Solved cases (3 shown):
| compound | GI50 |
| --- | --- |
| C=CC(=O)Nc1ccc(Sc2ccnc(Nc3cccc(Cl)c3)n2)cc1 | < 5 µM |
| C=CC(=O)Nc1ccc(Sc2ccnc(Nc3cccc(S(=O)(=O)NCc4ccccc4)c3)n2)cc1 | < 5 µM |
| C=CC(=O)Nc1ccc(Sc2nc(Nc3ccc4c(c3)OCO4)ncc2C)cc1 | < 1 µM |

Query: Specify reported GI50 for the compound shown: C=CC(=O)Nc1ccc(Sc2ccnc(Nc3ccc(C#N)cc3)n2)cc1
Response: < 5 µM

Query: Specify reported GI50 for the compound shown: C=CC(=O)Nc1ccc(Sc2nc(Nc3ccc(N4CCC(O)C4)cc3)ncc2C)cc1 (stereo not drawn)
Response: < 1 µM

Query: Specify reported GI50 for the compound shown: CC#CC(=O)Nc1ccc(Sc2ccnc(Nc3ccc(N4CCOCC4)cc3)n2)cc1
Response: < 5 µM

Query: Specify reported GI50 for the compound shown: Nc1ccc(Sc2nc(Nc3ccc(N4CCOCC4)cc3)ncc2F)cc1
Response: < 5 µM

Query: Specify reported GI50 for the compound shown: COc1cc(Sc2ccnc(Nc3ccc(N4CCOCC4)cc3)n2)ccc1N
Response: > 20 µM

Query: Specify reported GI50 for the compound shown: OCc1cccc(Sc2ccnc(Nc3ccc(N4CCOCC4)cc3)n2)c1
Response: < 20 µM

// provenance: patent US8846704B2
